Cited source for all entries: ChEMBL document CHEMBL4699581

assay: Induction of type-1 IFN signalling in human THP-1 cells assessed as increase in type-1 IFN-induced ISG54-ISRE promoter activity by measuring increase in transcriptional activity of luciferase reporter gene by secreted luciferase reporter gene assay; assay type: cell-based
property name: pEC50
When answering, recall that pEC50 equals minus log10 of the concentration in mol/L, and write that number alone.

Query: Please list pEC50 recorded for the compound COc1cc(CC(=O)N2CCN(c3cccc(Cl)c3Cl)CC2)cc(OC)c1OC
Result: 4.88

----------
Recorded viability at 40 µM for the following molecules
experiment: Cytotoxicity against human THP-1 cells assessed as cell viability at 40 uM relative to control; assay type: cell-based; settings: read-out: Activity
Report only the number, with the unit % understood.

item_smiles=COc1cccc(NC(=O)N2CCN(c3cccc(Cl)c3Cl)CC2)c1 property_name="viability at 40 µM" reported_measurement=87
item_smiles=Fc1ccc(NC(=S)N2CCN(c3cccc(Cl)c3Cl)CC2)cc1 property_name="viability at 40 µM" reported_measurement=81

Here is the next item to consider.
Query: Please look at this molecule and report its viability at 40 µM: COc1ccc(C(=O)N2CCN(c3cccc(Cl)c3Cl)CC2)cc1
Result: 81

----------
test: Cytotoxicity against human THP-1 cells assessed as cell viability at 40 uM relative to control; type: cell-based; settings: read-out: Activity
property name: viability at 40 µM (%)
Your answer is read as %, so omit the unit and give the number.

Some entries whose results are on file:
item_smiles=O=C(Nc1ccc(F)cc1)N1CCN(c2cccc(Cl)c2Cl)CC1 reported_measurement=95
item_smiles=Cc1cc([N+](=O)[O-])ccc1C(=O)N1CCN(c2cccc(Cl)c2Cl)CC1 reported_measurement=84
item_smiles=O=C(c1ccc(C(F)(F)F)cc1)N1CCN(c2cccc(Cl)c2Cl)CC1 reported_measurement=90
item_smiles=O=C(Nc1cccc(OC(F)(F)F)c1)N1CCN(c2cccc(Cl)c2Cl)CC1 reported_measurement=70
item_smiles=O=C(Nc1cccc(C(F)(F)F)c1)N1CCN(c2cccc(Cl)c2Cl)CC1 reported_measurement=76

Query: Look up and report measured viability at 40 µM for this entry: S=C(Nc1ccc(Cl)cc1)N1CCN(c2cccc(Cl)c2Cl)CC1
Result: 99

Query: Please report viability at 40 µM for the following compound: O=C(CCc1ccccc1C(F)(F)F)N1CCN(c2cccc(Cl)c2Cl)CC1
Result: 96

Query: Please list viability at 40 µM recorded for the compound O=C(Nc1ccc(C(F)(F)F)cc1)N1CCN(c2cccc(Cl)c2Cl)CC1
Result: 61

Query: Provide measured viability at 40 µM value, entry: O=C(c1cccc(C(F)(F)F)c1)N1CCN(c2cccc(Cl)c2Cl)CC1
Result: 105

Query: Tell me its viability at 40 µM given O=C(Cc1cc(F)c(F)cc1F)N1CCN(c2cccc(Cl)c2Cl)CC1 as the entry.
Result: 101

Query: Name the recorded viability at 40 µM of the compound listed here: S=C(Nc1cccc(Br)c1)N1CCN(c2cccc(Cl)c2Cl)CC1
Result: 85

----------
test: Cytotoxicity against human THP-1 cells assessed as cell viability at 40 uM relative to control; format: cell-based; details: read-out: Activity
property name: viability at 40 µM

Use the examples below as a reference point.
item_smiles=O=C(Nc1ccc([N+](=O)[O-])cc1)N1CCN(c2cccc(Cl)c2Cl)CC1 reported_measurement=90%
item_smiles=O=C(c1ccc(Cl)cc1Cl)N1CCN(c2cccc(Cl)c2Cl)CC1 reported_measurement=86%
item_smiles=COc1cc(OC)cc(C(=O)N2CCN(c3cccc(Cl)c3Cl)CC2)c1 reported_measurement=83%
item_smiles=O=C(c1cnccn1)N1CCN(c2cccc(Cl)c2Cl)CC1 reported_measurement=89%
item_smiles=COc1cc(CC(=O)N2CCN(c3cccc(Cl)c3Cl)CC2)cc(OC)c1OC reported_measurement=98%
item_smiles=COc1ccc(NC(=O)N2CCN(c3cccc(Cl)c3Cl)CC2)cc1 reported_measurement=98%
item_smiles=O=[N+]([O-])c1ccc(NC(=S)N2CCN(c3cccc(Cl)c3Cl)CC2)cc1 reported_measurement=97%
item_smiles=O=C(Nc1ccc(OC(F)(F)F)cc1)N1CCN(c2cccc(Cl)c2Cl)CC1 reported_measurement=96%
item_smiles=CC(C)NC(=S)N1CCN(c2cccc(Cl)c2Cl)CC1 reported_measurement=84%
item_smiles=S=C(Nc1ccc(Br)cc1)N1CCN(c2cccc(Cl)c2Cl)CC1 reported_measurement=46%

Query: Given the compound CCCCCCCCCCCCC(=O)N1CCN(c2cccc(Cl)c2Cl)CC1 , write its reported viability at 40 µM.
Result: 89%
